Tested on: Rattus norvegicus
Assay: Cardiotoxicity in Wistar rat assessed as effect on heart rate at 5 mg/kg, iv measured after 5 mins (reference value: 323 to 374.5 bpm)
Type: toxicity, organism-based
Conditions: in vivo
Activity vs 300 bpm: less than gives true (1); not less than gives false (0).

*Q* Answer whether the molecule COc1ccccc1CNCC(O)COc1cccc2c(=O)c3ccccc3oc12.Cl (racemic) has Activity strictly less than 300 bpm
*A* true (1)

*Q* Item Cl.O=c1c2ccccc2oc2cc(OCC(O)CN3CCN(c4ccccn4)CC3)ccc12 (racemic) : Activity beneath 300 bpm, strictly?
*A* false (0)

*Q* Bench note: check whether COc1ccc(CCNCC(O)COc2cccc3c(=O)c4ccccc4oc23)cc1OC.Cl (racemic) shows Activity below 300 bpm
*A* true (1)

*Q* Consider the molecule Cc1cccc2c(=O)c3ccc(OCC(O)CNC(C)(C)C)cc3oc12.Cl (racemic) . Is its Activity strictly less than 300 bpm?
*A* false (0)

*Q* Here's an entry: COc1ccccc1CCNCC(O)COc1cccc2c(=O)c3ccccc3oc12.Cl (racemic) . Is its Activity below 300 bpm?
*A* false (0)

*Q* Hello, I'm reviewing records and need to know if Activity of Cl.O=c1c2ccccc2oc2c(OCC(O)CN3CCN(c4ccccn4)CC3)cccc12 (racemic) is below 300 bpm. Could you check?
*A* false (0)
